System: HepG2
TEST_DETAILS: In vitro inhibition of cholesterol biosynthesis in Hep G2 cells
Format: functional, Homo sapiens
Parameters: concentration or dose not given beside the values
Give Inhibition for every item shown.
Give the number; % is assumed, so skip it.

Q) What value of Inhibition has been recorded for this entry: CCCCC/C=C\C/C=C\CCCCCCCC1(C)CCc2cc(O)c(C)c(C)c2O1 (stereo not given)
A) 18

Q) What value of Inhibition has been recorded for this entry: CC(C)=CCC/C(C)=C/CC/C(C)=C/CCC1(C)CCc2ccc(O)cc2O1 (stereo not given)
A) 58

Q) What value of Inhibition has been recorded for this entry: CC(C)=CCC/C(C)=C/CC/C(C)=C/CCC1(C)CCc2ccc(O)c(O)c2O1 (stereo not given)
A) 27

Q) What value of Inhibition has been recorded for this entry: C/C(=C\CCC1(C)CCc2cc(O)c(F)cc2O1)CO (stereo not given)
A) 15

Q) What value of Inhibition has been recorded for this entry: CC(C)=CCC/C(C)=C/CC/C(C)=C/CCC1(C)CCc2c(C)c(O)cc(C)c2O1 (stereo not given)
A) 43

Q) What value of Inhibition has been recorded for this entry: CC(C)=CCC/C(C)=C/CC/C(C)=C/CCC1CCc2cc(O)c(C)c(C)c2O1 (stereo not given)
A) 62

Q) What value of Inhibition has been recorded for this entry: CC(C)=CCC/C(C)=C/CC/C(C)=C/CCC1(C)CCc2cc(O)c(F)cc2O1 (stereo not given)
A) 60

Q) What value of Inhibition has been recorded for this entry: CC(C)=CCC/C(C)=C/CC/C(C)=C/CCC1(C)CCc2cc(C)c(C)cc2O1 (stereo not given)
A) 33

Q) What value of Inhibition has been recorded for this entry: COc1cc2c(c(C)c1C)OC(C)(CC/C=C(\C)CC/C=C(\C)CCC=C(C)C)CC2 (stereo not given)
A) 0

Q) What value of Inhibition has been recorded for this entry: CC(C)=CCC/C(C)=C/CC/C(C)=C/CCC1(C)CCc2cc(F)ccc2O1 (stereo not given)
A) 35

Q) What value of Inhibition has been recorded for this entry: CC(C)=CCC/C(C)=C/CC/C(C)=C/CCC1(C)CC(O)c2cc(O)c(C)c(C)c2O1 (stereo not given)
A) 56

Q) What value of Inhibition has been recorded for this entry: CC(C)=CCC/C(C)=C/CC/C(C)=C/CCC1(C)CCc2ccccc2O1 (stereo not given)
A) 45

Q) What value of Inhibition has been recorded for this entry: CC(C)=CCC/C(C)=C/CC/C(C)=C/CCC1(C)CCc2cc(O)c(C)c(C)c2O1 (stereo not given)
A) 69

Q) What value of Inhibition has been recorded for this entry: CC(C)=CCC/C(C)=C/CC/C(C)=C/CCC1(C)CCc2c(O)cccc2O1 (stereo not given)
A) 62

Q) What value of Inhibition has been recorded for this entry: CC(C)=CCC/C(C)=C/CC/C(C)=C/CCC1(C)CCc2cc(O)c3ccccc3c2O1 (stereo not given)
A) 57

Q) What value of Inhibition has been recorded for this entry: CCCCC/C=C/C/C=C/CCCCCCCC1(C)CCc2cc(O)c(C)c(C)c2O1 (stereo not given)
A) 17

Q) What value of Inhibition has been recorded for this entry: CC(C)=CCC/C(C)=C/CC/C(C)=C/CCC1(C)C=Cc2cc(O)c(C)c(C)c2O1 (stereo not given)
A) 69

Q) What value of Inhibition has been recorded for this entry: CC(C)=CCC/C(C)=C/CCC#CCCC1(C)CCc2cc(O)c(C)c(C)c2O1 (stereo not given)
A) 81

Q) What value of Inhibition has been recorded for this entry: CCCCC/C=C\C/C=C\C/C=C\CCCCC1(C)CCc2cc(O)c(C)c(C)c2O1 (stereo not given)
A) 22

Q) What value of Inhibition has been recorded for this entry: CC(C)=CCC/C(C)=C/CC/C(C)=C/CCC1CCc2cc(O)ccc2O1 (stereo not given)
A) 71
